assay: E. coli acrAB mutant growth effects, primary screen, E. coli filamentation inducers, strain DRC39, OD650, 24 h (AID 1178); settings: higher = more signal, called active from +8 up or from −8 down;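 further: growth measured as culture turbidity by optical density at 650 nm; test concentration not given here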
// Criterion not met strictly below -0.3 in z-score; Criterion met otherwise

Examples with answers:
- compound: "O=C1C2C=CC(C(O)Cc3ccccc3)N(n3cnnc3)C2C(=O)N1Cc1ccccc1 (centres undefined)"
  answer.label: "Criterion not met"
- compound: "CC(C)C(CO)N1C(=O)[C@@H]2C3C(=O)OCCC/C=C\\[C@H]3OC23C=CCN(CCN2CCOCC2)C(=O)[C@@H]13 (some centres undefined)"
  answer.label: "Criterion met"
- compound: "CC(C)NC(=O)[C@@]1(c2ccc([N+](=O)[O-])cc2)CC(=O)N(C2CCCCC2)[C@@H]1c1ccc(CO)cc1I"
  answer.label: "Criterion met"
- compound: "COC(=O)c1c(CC[C@@H](CO)NC(=O)NCCn2cc(C3(O)CCCC3)nn2)oc(C(C)=O)c1C(=O)OC"
  answer.label: "Criterion not met"
- compound: "C=C(CCCC)/C(=C/C[C@H](OC(=O)c1ccncc1)c1ccccc1OCCO)c1cnc2ccccc2c1"
  answer.label: "Criterion met"

Q: Exam item: decide whether the reported z-score for `CCCCCCc1nc(-c2cc(C)c(OC)c(C)c2)cc2c1[Si](C(C)C)(C(C)C)OC2` is at least -0.3.
Ans: Criterion met

Q: Record: O[C@@H](Cc1ccccc1)[C@H]1C2C=CCCC=C2CN1Cc1cccc(Cl)c1 (some centres undefined)
Ans: Criterion met

====

molecular target: Carbonic anhydrase 2 (Homo sapiens) (UniProt P00918); experiment: CAII small-molecule binders, profiling panel, biochemical, small-molecule microarray, Alexa647-labelled CAII (AID 1122); conditions: CAII-A647 binding fluorescence, higher = more signal
Would you mind classing the entries by composite z-score? Ranges: low: < 0.4; moderate: ≥ 0.4 and < 0.7; high: ≥ 0.7

- molecule: "O=C1C2C=CC(C(O)Cc3ccccc3)N(n3cnnc3)C2C(=O)N1Cc1ccccc1 (stereo not given)"
  target.system: "Carbonic anhydrase 2 (Homo sapiens) (UniProt P00918)"
  answer.label: "moderate"
- molecule: "C[C@@]1([C@@H](NC(=O)c2ccc(-c3ccccc3)cc2)c2ccc(Cl)cc2)C[C@H]1C1CCCCC1"
  target.system: "Carbonic anhydrase 2 (Homo sapiens) (UniProt P00918)"
  answer.label: "low"

Consider now this further molecule.
Q: Which bin, given its composite z-score, does `C=C(/C(=C/C[C@H](OC(C)=O)c1ccccc1OCCO)c1cnc2ccccc2c1)C(C)C` occupy?
Ans: high

====

target: Neurogenic locus notch homolog protein 2 (Homo sapiens) (UniProt Q04721); experiment: Notch2 binders on small-molecule microarrays, primary screen, biochemical, small-molecule microarray, 635 nm fluorescence, stem cell growth factors (AID 1073); details: Notch2 binding, higher = more signal
Sequence (Q04721 whole entry, looked up): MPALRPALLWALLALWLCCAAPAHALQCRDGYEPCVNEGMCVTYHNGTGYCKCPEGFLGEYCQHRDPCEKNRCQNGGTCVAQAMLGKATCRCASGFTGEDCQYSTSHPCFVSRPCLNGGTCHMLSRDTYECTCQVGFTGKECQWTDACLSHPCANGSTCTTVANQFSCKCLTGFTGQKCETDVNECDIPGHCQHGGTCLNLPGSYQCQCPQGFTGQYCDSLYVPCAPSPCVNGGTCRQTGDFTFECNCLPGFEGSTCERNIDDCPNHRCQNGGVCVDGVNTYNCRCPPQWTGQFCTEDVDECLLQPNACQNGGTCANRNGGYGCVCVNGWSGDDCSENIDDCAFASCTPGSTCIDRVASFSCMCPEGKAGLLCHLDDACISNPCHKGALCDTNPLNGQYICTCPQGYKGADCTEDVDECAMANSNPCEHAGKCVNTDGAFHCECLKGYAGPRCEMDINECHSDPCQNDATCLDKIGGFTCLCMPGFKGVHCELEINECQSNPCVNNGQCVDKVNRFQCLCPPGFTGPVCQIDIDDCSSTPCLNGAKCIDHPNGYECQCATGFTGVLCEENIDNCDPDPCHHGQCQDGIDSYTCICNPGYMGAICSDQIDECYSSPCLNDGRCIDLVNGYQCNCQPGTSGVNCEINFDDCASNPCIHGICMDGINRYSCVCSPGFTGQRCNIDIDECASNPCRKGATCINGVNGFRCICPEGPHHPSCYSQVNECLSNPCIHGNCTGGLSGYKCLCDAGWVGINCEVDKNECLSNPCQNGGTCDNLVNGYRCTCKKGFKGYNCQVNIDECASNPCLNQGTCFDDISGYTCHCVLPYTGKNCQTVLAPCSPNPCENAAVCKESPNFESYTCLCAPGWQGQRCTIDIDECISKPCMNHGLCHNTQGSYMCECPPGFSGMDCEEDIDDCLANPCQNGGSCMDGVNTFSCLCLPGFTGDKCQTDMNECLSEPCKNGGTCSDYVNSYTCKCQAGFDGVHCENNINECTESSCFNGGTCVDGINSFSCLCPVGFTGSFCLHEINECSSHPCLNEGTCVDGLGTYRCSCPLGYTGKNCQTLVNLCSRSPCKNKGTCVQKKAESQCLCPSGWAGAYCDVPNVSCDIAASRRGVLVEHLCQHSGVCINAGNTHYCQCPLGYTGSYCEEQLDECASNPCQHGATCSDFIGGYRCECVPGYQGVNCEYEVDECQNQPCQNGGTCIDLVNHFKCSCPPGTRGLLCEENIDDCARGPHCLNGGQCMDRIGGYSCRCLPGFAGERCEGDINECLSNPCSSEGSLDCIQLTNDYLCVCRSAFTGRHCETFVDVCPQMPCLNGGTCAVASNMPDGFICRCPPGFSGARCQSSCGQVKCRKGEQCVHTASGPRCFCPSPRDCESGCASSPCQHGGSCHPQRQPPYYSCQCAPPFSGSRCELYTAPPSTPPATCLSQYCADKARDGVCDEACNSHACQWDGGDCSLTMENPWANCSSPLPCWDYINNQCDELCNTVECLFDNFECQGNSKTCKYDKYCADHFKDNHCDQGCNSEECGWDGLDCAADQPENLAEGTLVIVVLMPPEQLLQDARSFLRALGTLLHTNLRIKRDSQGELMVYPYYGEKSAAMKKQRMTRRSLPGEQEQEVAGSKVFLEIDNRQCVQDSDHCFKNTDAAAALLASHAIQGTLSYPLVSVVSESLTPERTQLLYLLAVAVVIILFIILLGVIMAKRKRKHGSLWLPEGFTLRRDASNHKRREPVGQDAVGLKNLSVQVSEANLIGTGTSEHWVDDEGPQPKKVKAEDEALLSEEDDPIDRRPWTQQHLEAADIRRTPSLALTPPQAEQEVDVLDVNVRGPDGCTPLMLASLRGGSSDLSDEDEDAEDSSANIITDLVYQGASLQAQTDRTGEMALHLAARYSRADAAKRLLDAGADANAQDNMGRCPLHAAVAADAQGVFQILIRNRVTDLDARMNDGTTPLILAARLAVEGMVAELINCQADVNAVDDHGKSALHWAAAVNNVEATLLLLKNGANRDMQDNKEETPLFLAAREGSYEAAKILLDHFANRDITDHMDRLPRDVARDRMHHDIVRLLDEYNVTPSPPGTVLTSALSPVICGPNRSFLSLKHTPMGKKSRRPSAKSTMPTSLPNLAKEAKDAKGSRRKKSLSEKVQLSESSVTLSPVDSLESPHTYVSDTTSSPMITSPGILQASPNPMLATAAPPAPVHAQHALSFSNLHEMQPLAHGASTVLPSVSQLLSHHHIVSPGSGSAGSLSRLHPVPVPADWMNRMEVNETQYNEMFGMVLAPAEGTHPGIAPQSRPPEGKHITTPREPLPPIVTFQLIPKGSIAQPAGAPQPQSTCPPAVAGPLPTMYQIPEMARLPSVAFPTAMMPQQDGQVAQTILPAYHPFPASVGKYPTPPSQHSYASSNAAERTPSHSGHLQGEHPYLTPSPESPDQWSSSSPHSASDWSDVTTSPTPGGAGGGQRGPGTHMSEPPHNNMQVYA
Quick list: composite z-score per entry.
Answer with the value's number alone.

Q: Please look up its composite z-score: O=C1NC(=O)C2C1C=CC(C(O)c1cccs1)N2Nc1ccc(Cl)cc1Cl (stereo not given)
Ans: -0.0246

Q: Record: `O=C(c1ccccc1)N1C(=O)[C@]2(COC(c3ccc(OCCCO)cc3)=N2)Cc2ccccc21`
Ans: 0.839

Q: Record: `[N-]=[N+]=Nc1ccccc1[C@H]1OC(c2ccc(OCCCO)cc2)=N[C@@]1(CCS(=O)(=O)c1ccccc1)C(N)=O`
Ans: 0.742

====

system: Sam68 (KHDRBS1); assay: Sam68 small-molecule binders, primary screen, biochemical, small-molecule microarray, 635 nm fluorescence (AID 1125); conditions: small-molecule microarray binding, higher = more signal;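 further: score merges 667 nm channel intensity with signal to noise over triplicate slides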
Quick list: composite z-score per entry.
Answer with the value's number alone.

- molecule: "CCOC(=O)C[C@H]1[C@H](OC(=O)c2ccc(C(=O)c3ccccc3)cc2)[C@@H](NC(=O)c2ccc3ccccc3n2)c2cc(OCCCO)ccc2N1C(=O)c1ccccc1"
  metric: "composite z-score"
  experimental.value: 1.29

Q: Please tell me: composite z-score of `C=CCN1C(=O)[C@@]2(Cc3ccccc31)N=C(c1ccc(OCCCO)cc1)O[C@H]2c1ccccc1` , system Sam68 (KHDRBS1)?
Ans: 1.17

Q: Record: `CO[C@H]1O[C@H](CO)[C@@H](OC(=O)Nc2ccc(Oc3ccccc3)cc2)[C@H](OC(=O)Nc2ccc3c(c2)OCO3)[C@H]1OC(=O)Nc1ccc2c(c1)OCO2`
Ans: 1.3

Q: Record: OCCCC1=CC(c2cccs2)N(Cc2cc3c(cc2Br)OCO3)CC1 (centres undefined)
Ans: 0.242

====

test: PSAC antagonists in infected red cells, primary screen, cell-based, P. falciparum Indochina, OD700, 2 h (AID 1155);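 further: lysis reports solute entry through the parasite surface anion channel PSAC; channel blockers reduce lysis of infected cells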; conditions: P. falciparum Indochina infected erythrocytes, osmotic lysis OD700; higher = more signal, called active from +8 up or from −8 down
// not satisfied strictly below 1 in z-score; satisfied otherwise

- molecule: "O=C(c1ccccc1)N1C(=O)[C@]2(COC(c3ccc(OCCCO)cc3)=N2)Cc2ccccc21"
  answer.label: "satisfied"
- molecule: "C=CCOC(=O)[C@@H]1[C@H]2C(=O)O[C@H](c3ccccc3)[C@H](c3ccccc3)N2[C@H](c2ccc(OCCOC(=O)[C@H]3C[C@H]4C(=O)N5CCC[C@H]5C(=O)N4[C@H]3c3ccc(O)cc3)cc2)[C@@]12C(=O)Nc1ccc(I)cc12"
  answer.label: "not satisfied"
- molecule: "C=CC[C@]1(C(=O)NCCCOC)N=C(c2ccc(OCCCO)cc2)O[C@H]1c1ccccc1CN=[N+]=[N-]"
  answer.label: "satisfied"
- molecule: "C[N+](C)(C)CCCCNC(=O)[C@H]1C[C@H]2C(=O)N3CCC[C@H]3C(=O)N2[C@H]1c1cccc(OCCO)c1"
  answer.label: "not satisfied"
- molecule: "O=C1N[C@@H](Cc2ccccc2)C(=O)N2[C@@H]1C[C@@H](C(=O)O)[C@H]2c1cccc(OCCO)c1"
  answer.label: "satisfied"
- molecule: "C=CCNC(=O)[C@@H]1[C@H]2C(=O)O[C@H](c3ccccc3)[C@H](c3ccccc3)N2[C@H](c2ccccc2OCCO)[C@@]12C(=O)N(C(=O)OCCOC)c1ccccc12"
  answer.label: "satisfied"

Consider now this further molecule.
Q: Exam item: decide whether the reported z-score for O=C1C2C=CC(C(O)c3cc(C(F)(F)F)cc(C(F)(F)F)c3)N(n3cnnc3)C2C(=O)N1Cc1ccccc1 (configuration not stated) is at least 1.
Ans: satisfied

====

assay: binders of probe aFST on microarray, primary screen, stem cell growth factor project, biochemical, small-molecule microarray, fluorescence 635/667 (AID 1086); details: higher = more signal;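 further: score merges 667 nm fluorescence with signal-to-noise of each printed compound spot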
metric: composite z-score
Answer with the value's number alone.

Examples with their reported composite z-score follow.
- smiles.text: "NC(=O)NCC#Cc1ccc2c(c1)[C@]1(C(=O)N2)[C@H](C(=O)Nc2nc3ccccc3s2)[C@H]2C(=O)O[C@H](c3ccccc3)[C@H](c3ccccc3)N2[C@@H]1c1ccccc1OCCO"
  composite z-score: 1.39
- smiles.text: "COC(=O)[C@H](Cc1ccccc1)N1CC2=C[C@@H](C3CC3)n3c(=O)n(C)c(=O)n3[C@H]2[C@@H]1[C@@H](O)Cc1ccccc1"
  composite z-score: 0.559
- smiles.text: "O=C1C[C@@](C(=O)NCCN2CCOCC2)(c2ccc([N+](=O)[O-])cc2)[C@@H](c2ccc(CO)cc2)N1CC12CC3CC(CC(C3)C1)C2"
  composite z-score: 0.669
- smiles.text: "CO[C@H]1O[C@H](CO)[C@@H](OC(=O)Nc2ccc(Oc3ccccc3)cc2)[C@H](OC(=O)Nc2ccc3c(c2)OCO3)[C@H]1OC(=O)Nc1ccc2c(c1)OCO2"
  composite z-score: 0.968
- smiles.text: "COc1ccc(C#Cc2ccc3c(c2)[C@]2(C(=O)N3)[C@H](C(=O)NC[C@H](O)c3ccccc3)[C@H]3C(=O)O[C@H](c4ccccc4)[C@H](c4ccccc4)N3[C@@H]2c2ccc(O)cc2)cc1"
  composite z-score: 0.243

Moving on to another molecule below.
Q: Please look up its composite z-score: `O=C1C[C@@](C(=O)NCCN2CCOCC2)(c2ccc([N+](=O)[O-])cc2)[C@@H](c2ccc(CO)cc2I)N1CC12CC3CC(CC(C3)C1)C2`
Ans: 0.45

====

Quick list: composite z-score per entry.
biological target: Follistatin-related protein 3 (Homo sapiens); experiment: FSTL3 binders on small-molecule microarrays, primary screen, biochemical, small-molecule microarray, 635 nm fluorescence (AID 1105); conditions: FSTL3 binding, higher = more signal;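 further: score merges emission near 667 nm and signal to noise per printed spot across three slides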
Answer with the value's number alone.

Q: Please look up its composite z-score: `CCCC#C[Si](O[C@H](CC)c1cn(Cc2cccc(Cl)c2)nn1)(C(C)C)C(C)C`
Ans: 0.566

Q: Record: `O=C(NCCO)C1=C[C@H](Oc2ccccc2I)[C@@H](O)[C@H](N(Cc2ccco2)C(=O)Cc2ccccc2)C1`
Ans: 0.468

Q: Record: `COCCOC(=O)N1C(=O)[C@@]2(c3cc(C#CCC(C(=O)OC)C(=O)OC)ccc31)[C@H](c1ccccc1OCCO)N1[C@H](c3ccccc3)[C@H](c3ccccc3)OC(=O)[C@H]1[C@@H]2C(=O)NC[C@H](O)c1ccccc1`
Ans: 1.23

Q: Record: `Cc1ccc([C@@H]2C[C@@H](Sc3ccccc3)[C@H](C(=O)O)CN2S(=O)(=O)c2ccc(C)cc2)cc1`
Ans: 0.968

Q: Record: `O=C(CS)NCCCCCCNC(=O)[C@@H]1C[C@@H]2C(=O)N[C@@H](Cc3ccccc3)C(=O)N2[C@@H]1c1cccc(OCCO)c1`
Ans: 1.26

Q: Record: `O=C1c2ccccc2[C@](Cc2ccccc2I)(C(=O)NCC(F)(F)F)[C@H](c2ccc(CO)cc2)N1Cc1ccccc1Cl`
Ans: 0.923
